Measured log Pow* (P′ 6%) accompanies every entry in the list below.
Test: log Pow* calculated by Formula 2 from log Pow and the polarity parameter P′(x) of the ethanol/water mixture
Conditions: solvent ethanol, proportion 6%

// query Retrieve log Pow* (P′ 6%) measured for c1ccc2[nH]ccc2c1 and print it.
// result 1.88

* * *

Test: log Pow* calculated by Formula 2 from log Pow and the polarity parameter P′(x) of the ethanol/water mixture
Conditions: solvent ethanol, proportion 100%
Measured log Pow* (P′ 100%) accompanies every entry in the list below.
Answer as a number with no unit attached.

Example entries and their recorded answers appear below.
{"COMPOUND": "OCc1ccco1", "RECORDED NUMBER": "−15.08"}
{"COMPOUND": "CCC/C=C/C=O", "RECORDED NUMBER": "−1.06"}
{"COMPOUND": "O=Cc1ccco1", "RECORDED NUMBER": "−5.16"}

// query Retrieve log Pow* (P′ 100%) measured for CC/C=C\CC1CCCC(=O)O1 (stereo not drawn) and print it.
// result 0.73

// query Retrieve log Pow* (P′ 100%) measured for CCCCOC(C)=O [Butylacetate] and print it.
// result −0.66

// query Retrieve log Pow* (P′ 100%) measured for CCCCCC(=O)OC [Methylcapronate] and print it.
// result 0.43

// query Retrieve log Pow* (P′ 100%) measured for Oc1ccccc1 and print it.
// result −1.43

// query Retrieve log Pow* (P′ 100%) measured for CC(=O)C(C)=O and print it.
// result −4.56

// query Retrieve log Pow* (P′ 100%) measured for C=C(C)[C@@H]1CCC2=CC(=O)C[C@@H](C)[C@]2(C)C1 and print it.
// result 3.05
